Test system: MDA-MB-231
Assay: Cytotoxicity against human MDA-MB-231 cells assessed as cell viability at 30 uM incubated for 72 hrs by SRB assay relative to control
Assay type: functional
Details: read-out: Activity
quantityMeasured: viability at 30 µM

Study these solved cases before continuing.
compound: COc1cccc2c1Oc1nc(-c3ccc(F)cc3)[nH]c(=O)c1C2
testResult: 97.8%

compound: N#CC1=C(/N=C/Nc2ccccc2)Oc2ccc(Br)cc2C1CC(=O)c1ccccc1 (stereo not given)
testResult: 96%

compound: Cc1cccc2c1Oc1nc(-c3ccccc3)[nH]c(=O)c1C2
testResult: 15.9%

# map each compound to its viability at 30 µM
1. COc1cccc2c1Oc1nc(-c3ccccc3)[nH]c(=O)c1C2
2. COc1cccc(-c2nc3c(c(=O)[nH]2)Cc2cc(OC)ccc2O3)c1
3. COc1ccc2c(c1)Cc1c(nc(-c3ccccc3OC)[nH]c1=O)O2
4. COc1cccc2c1Oc1nc(-c3cccc(O)c3)[nH]c(=O)c1C2

Reply:
["89.2%", "41.2%", "65.9%", "102%"]

---

System: MDA-MB-231
Assay: Cytotoxicity against human MDA-MB-231 cells assessed as cell viability at 30 uM incubated for 72 hrs by SRB assay relative to control
Type: functional
Conditions: read-out: Activity
quantityMeasured: viability at 30 µM (%)
Numbers only, in %.

Study these solved cases before continuing.
compound: COc1cccc2c1C(=O)c1c(O)c3c(c(O)c1C2=O)C[C@@](O)(C(=O)CO)C[C@@H]3O[C@H]1C[C@H](N)[C@H](O)[C@H](C)O1 [DOXORUBICIN]
testResult: 5.85

compound: Cc1ccc2c(c1)Cc1c(nc(-c3ccccc3)[nH]c1=O)O2
testResult: 65.6

compound: O=c1[nH]c(-c2ccccc2)nc2c1Cc1cc(Br)ccc1O2
testResult: 52.1

# map each compound to its viability at 30 µM
1. O=c1[nH]c(-c2ccc3c(c2)OCO3)nc2c1Cc1cc(Br)ccc1O2
2. COc1ccc2c(c1)Cc1c(nc(-c3cccc(Cl)c3)[nH]c1=O)O2
3. COc1cccc(-c2nc3c(c(=O)[nH]2)Cc2cc(Cl)ccc2O3)c1
4. COc1cc(OC)c(C2N=C3Oc4c(cccc4OC)C=C3C(=O)N2)c(OC)c1 (centres undefined)
5. COc1ccc(OC)c(-c2nc3c(c(=O)[nH]2)Cc2cc(Cl)ccc2O3)c1
6. COc1cccc2c1Oc1nc(-c3ccc(Br)cc3)[nH]c(=O)c1C2

Reply:
77.8
44.2
18.4
77.4
78
80.4

---

Provide the recorded viability at 30 µM for the entries that follow.
System: MCF7
Experiment: Cytotoxicity against human MCF7 cells assessed as cell viability at 30 uM incubated for 72 hrs by SRB assay relative to control
Type: functional
Conditions: read-out: Activity
Answers are plain numbers, in %.

# map each compound to its viability at 30 µM
1. COc1cccc2c1Oc1nc(-c3cccc(O)c3)[nH]c(=O)c1C2
2. COc1cccc(-c2nc3c(c(=O)[nH]2)Cc2cccc(OC)c2O3)c1
3. Brc1ccc2c(c1)-c1cc(-c3ccccc3)nc3c1C(N=CN3c1ccccc1)O2 (stereo not given)
4. COc1cccc2c1Oc1nc(-c3ccc(Br)cc3)[nH]c(=O)c1C2
5. COc1ccc2c(c1)Cc1c(nc(-c3cccc(Cl)c3)[nH]c1=O)O2

Reply:
1. 25.4
2. 71.3
3. 25.9
4. 75.3
5. 45.8

# map each compound to its viability at 30 µM
1. COc1cccc2c1Oc1nc(/C=C/c3ccccc3)[nH]c(=O)c1C2
2. COc1cccc2c1Oc1nc(-c3cccc(Cl)c3)[nH]c(=O)c1C2

Reply:
56.7
40.4

# map each compound to its viability at 30 µM
1. CC(C)(C)c1cc(-c2nc3c(c(=O)[nH]2)Cc2ccccc2O3)cc(C(C)(C)C)c1O
2. O=c1[nH]c(-c2ccccc2)nc2c1Cc1ccccc1O2
3. COc1cccc2c1Oc1nc(-c3cc(C(C)(C)C)c(O)c(C(C)(C)C)c3)[nH]c(=O)c1C2

Reply:
1. 94.7
2. 79.2
3. 43.5
